Source of measurements: patent US20090118195A1

- EXPERIMENTAL_SYSTEM: T1, EPO receptor (on TF-1 cells) (UniProt P19235 25-508, limits assumed)
- T1 sequence (looked up): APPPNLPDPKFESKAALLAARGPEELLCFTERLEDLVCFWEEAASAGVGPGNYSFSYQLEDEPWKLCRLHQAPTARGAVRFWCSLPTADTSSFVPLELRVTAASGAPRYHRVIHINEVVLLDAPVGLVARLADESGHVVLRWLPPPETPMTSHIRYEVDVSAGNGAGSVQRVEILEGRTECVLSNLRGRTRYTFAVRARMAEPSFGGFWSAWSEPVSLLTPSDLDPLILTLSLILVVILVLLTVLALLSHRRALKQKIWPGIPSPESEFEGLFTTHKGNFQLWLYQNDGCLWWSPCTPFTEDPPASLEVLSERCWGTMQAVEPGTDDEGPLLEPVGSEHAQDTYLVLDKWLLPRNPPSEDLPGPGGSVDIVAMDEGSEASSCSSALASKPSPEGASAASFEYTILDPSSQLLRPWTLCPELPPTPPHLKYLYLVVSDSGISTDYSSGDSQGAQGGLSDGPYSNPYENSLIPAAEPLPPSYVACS
- ASSAY_PROCEDURE: cell-based or functional assay
*1 amine or outer side, *2 acyl side, *3 side chain or, on linkers, in order; H or OH if unused. Primed or numbered codes have the meaning given here. Where no end group is shown, it is not given here. [ ]: non-standard residue; d: D form. Als″ = residue of 5-aminolevulinic acid, O=C(CCC(=O)[*:2])CN[*:1]
MEASUREMENT_KIND: EC50, TF-1 cell proliferation (MTT assay) (µM)

Example results:
binder="GGTYSCHFGKLTWVCKPQGG [SEQ ID NO 4: GGTYSCHFGKLTWVCKPQGG]" endpoint_result=4.66
binder="GGTYSCHF[Als″]LTWVCKKQGG (cysteine pairing not given here) [SEQ ID NO 8: GGTYSCHF-(Als)-LTWVCKKQGG]" endpoint_result=5
binder="GGTYSCHFGRLTWVCKPQGG [SEQ ID NO 5: GGTYSCHFGRLTWVCKPQGG]" endpoint_result=5.16
binder="GGTYSCHFGRLTWVCKKQGG [SEQ ID NO 6: GGTYSCHFGRLTWVCKKQGG]" endpoint_result=4.97

a: GGTYSCHF[Als″]LTWVCKPQGG (cysteine pairing not given here) [SEQ ID NO 7: GGTYSCHF-(Als)-LTWVCKPQGG]
b: GGTYSCHFGKLTWVCKKQGG [SEQ ID NO 2: GGTYSCHFGKLTWVCKKQGG]
Prompt line: Two entries are listed, a and b . Which one carries the higher EC50, TF-1 cell proliferation (MTT assay)? Kindly give the label for the entry you pick.
Response line: a

P: GGTYSCHFAKLTWVCKKQGG
Q: GGTYSCHFGPLTWVCKKQGG
Prompt line: Two entries are listed, P and Q . Which one carries the higher EC50, TF-1 cell proliferation (MTT assay)? Kindly give the label for the entry you pick.
Response line: P
